Taken from the supplement of paper PMC10724198.

Test system: Saccharomyces cerevisiae
test protocol: protein stability index of tFT-peptide fusion (C-terminal peptide) (PSI (0-1 scale)); higher = more stable (slower turnover)
conditions used: genetic background: das1 deletion; temperature: 30 C
Respond with true for protein stability index values of 0.4 and above, false for values below.

Completed entries (count: 5):
INSERT INTO measurements (residues, group_label) VALUES
  ('WEISNFFGCFIG', 'true'),
  ('CLWLRCIVSILP', 'false'),
  ('GGHGGRRRKGVG', 'true'),
  ('VLGLYSLLLSFF', 'true'),
  ('VLVFYFCFSFCS', 'false');

// query Test whether the sequence "LKCFLVLTFWFS" records protein stability index of 0.4 or higher.
// result false

// query Please give the result for "CSRTRLHCFTAS" too.
// result true

// query Please give the result for "VFGFLVFYVCVR" too.
// result false

// query Please give the result for "LIVCVKAITIVS" too.
// result false

// query Please give the result for "GIANHAMVIVVL" too.
// result false

// query Please give the result for "VQWPLLVVGCMG" too.
// result false

// query Please give the result for "VQFISLVCLFRF" too.
// result false

// query Please give the result for "GCVMSVCSLAVS" too.
// result true

// query Please give the result for "WGGEFLSLTLSS" too.
// result true

// query Please give the result for "SLLFVFVSVGCI" too.
// result false

// query Please give the result for "FVVGFVCSMVWG" too.
// result false

// query Please give the result for "GLIICRRCLWCC" too.
// result false

---

Test system: Saccharomyces cerevisiae
test protocol: protein stability index of tFT-peptide fusion (C-terminal peptide) (PSI (0-1 scale)); higher = more stable (slower turnover)
conditions used: genetic background: das1 deletion; temperature: 30 C
parameter measured: protein stability index
# answer = number (no unit)

INSERT INTO results (residues, parameter_measured, reported_result) VALUES
  ('FFACSLLFVLVF', 'protein stability index', 0.177),
  ('KVALWRRGVLAA', 'protein stability index', 0.257),
  ('WCCVFVARFFWL', 'protein stability index', 0.348);

// query Quick one: protein stability index for "LYTFCSMDANPM" ?
// result 0.439

// query Please give the result for "WALVLLVPVWFD" too.
// result 0.383

// query Please give the result for "VALAVRVVVCGA" too.
// result 0.122

// query Please give the result for "VGVVLWWVVLMV" too.
// result 0.184

// query Please give the result for "PLPSRAPVQFLL" too.
// result 0.643

// query Please give the result for "ASGFLVIPLWVF" too.
// result 0.323

// query Please give the result for "TFLCSSLALAVI" too.
// result 0.338

// query Please give the result for "VLISLVLLFRCW" too.
// result 0.262

// query Please give the result for "FNLFWPVSAFVV" too.
// result 0.436

// query Please give the result for "GGVFYVFFVFVG" too.
// result 0.246

// query Please give the result for "CVFVRCVDCMSG" too.
// result 0.384

// query Please give the result for "RALSLPPLLLVL" too.
// result 0.319

// query Please give the result for "RLSGACILLSLV" too.
// result 0.553

// query Please give the result for "SFFFSFFPYFFC" too.
// result 0.606

// query Please give the result for "GGGGGGRWGRLC" too.
// result 0.66

// query Please give the result for "CGWVRRARVKMM" too.
// result 0.63

// query Please give the result for "CVLGWCSLIAWC" too.
// result 0.234

// query Please give the result for "RIIDRVSRLIML" too.
// result 0.689

// query Please give the result for "RVGGVVVLGCVG" too.
// result 0.549

---

System: Saccharomyces cerevisiae
test protocol: protein stability index of tFT-peptide fusion (C-terminal peptide) (PSI (0-1 scale)); higher = more stable (slower turnover)
conditions used: genetic background: wild type; temperature: 30 C
// reported protein stability index per item

As a guide, the following entries are already answered.
INSERT INTO assay_data (residues, parameter_measured, reported_result) VALUES
  ('RRPVHTHTSVSP', 'protein stability index', 0.606),
  ('PTYTKYRTRQIN', 'protein stability index', 0.0994);

// query Quick one: protein stability index for "GLAELKSYDGEG" ?
// result 0.696

// query Please give the result for "HVSVIRRGICCA" too.
// result 0.374

// query Please give the result for "MALAVRVVYCGA" too.
// result 0.378

// query Please give the result for "SIPLYAKNSSLP" too.
// result 0.722

// query Please give the result for "AHVYGCGGGGMT" too.
// result 0.734

// query Please give the result for "SDLGLHGRVPST" too.
// result 0.667

// query Please give the result for "PGSRRAQPVTSG" too.
// result 0.741

// query Please give the result for "YDLGHYFSIPRL" too.
// result 0.747

// query Please give the result for "GGGWGGGGSSCA" too.
// result 0.659

// query Please give the result for "PLHPSSTPATPF" too.
// result 0.732

// query Please give the result for "HTGKAATRKVIK" too.
// result 0.634

// query Please give the result for "PQYGTNQGRWTG" too.
// result 0.705

// query Please give the result for "KGVLTKRAVPST" too.
// result 0.703

// query Please give the result for "FPGGGARAGVGV" too.
// result 0.724

// query Please give the result for "PPPSSSGHPLHY" too.
// result 0.714

// query Please give the result for "PAPPSPSPPPPL" too.
// result 0.836

// query Please give the result for "AIVASAPSLGRS" too.
// result 0.658

// query Please give the result for "KLALVYLLIRGL" too.
// result 0.125

---

Test system: Saccharomyces cerevisiae
test protocol: protein stability index of tFT-peptide fusion (C-terminal peptide) (PSI (0-1 scale)); higher = more stable (slower turnover)
conditions used: genetic background: wild type; temperature: 30 C
Respond with 1.0 for protein stability index values of 0.7 and above, 0.0 for values below.

INSERT INTO results (residues, group_label) VALUES
  ('PLRMFRGGISWR', 1.0),
  ('VLYLQCITSAGH', 0.0),
  ('WGGFGLGVCAKC', 0.0),
  ('AGAGGGGWWGGV', 1.0),
  ('SWFVGFEGAVGG', 1.0),
  ('SLSPWRLPIGGR', 1.0),
  ('HPPHPPPLPGSP', 1.0),
  ('PVPLSALPPLPP', 1.0),
  ('DPEDPPRAREPQ', 0.0),
  ('PRPPRAPPPLPS', 0.0);

// query Test whether the sequence "PPACAHPLFWTL" records protein stability index of 0.7 or higher.
// result 0.0

// query Please give the result for "TRPTQNKQIKNI" too.
// result 0.0

---

// reported protein stability index per item
System: Saccharomyces cerevisiae
test protocol: protein stability index of tFT-peptide fusion (C-terminal peptide) (PSI (0-1 scale)); higher = more stable (slower turnover)
conditions used: genetic background: wild type; temperature: 30 C
# answer = number (no unit)

As a guide, the following entries are already answered.
INSERT INTO measurements (residues, parameter_measured, reported_result) VALUES
  ('VRSCGTAGKGVT', 'protein stability index', 0.615),
  ('SVWGGVPLVRET', 'protein stability index', 0.685);

// query Quick one: protein stability index for "FSASLPLSPSPA" ?
// result 0.678

// query Please give the result for "VVEGVFGQRFAG" too.
// result 0.701

// query Please give the result for "AAISGELRVWVL" too.
// result 0.642

// query Please give the result for "VFYLNLLNQTRV" too.
// result 0.629

// query Please give the result for "EGVKSGDGGAGG" too.
// result 0.638

---

Tested on: Saccharomyces cerevisiae
test protocol: protein stability index of tFT-peptide fusion (C-terminal peptide) (PSI (0-1 scale)); higher = more stable (slower turnover)
conditions used: genetic background: das1 deletion; temperature: 30 C
Respond with Condition met for protein stability index values of 0.7 and above, Condition not met for values below.

Completed entries (count: 2):
INSERT INTO assay_data (residues, group_label) VALUES
  ('ITNFFRVLVRLV [YER067C-A C-terminal 12 aa]', 'Condition not met'),
  ('RCWVQAVFDVPQ [ABP140 C-terminal 12 aa]', 'Condition met');

// query Test whether the sequence DILSQIIESCWV [YNL174W C-terminal 12 aa] records protein stability index of 0.7 or higher.
// result Condition not met

---

Test system: Saccharomyces cerevisiae
test protocol: protein stability index of tFT-peptide fusion (C-terminal peptide) (PSI (0-1 scale)); higher = more stable (slower turnover)
conditions used: genetic background: wild type; temperature: 30 C
Respond with y for protein stability index values of 0.6 and above, n for values below.

// query Test whether the sequence "VAIMSIWLVYML" records protein stability index of 0.6 or higher.
// result n

// query Please give the result for "PPSTPPRPDSPP" too.
// result n

// query Please give the result for "PRINTFVVVRVC" too.
// result n

// query Please give the result for "KEKGVTKIRISS" too.
// result n

// query Please give the result for "PEERSGTSAGRL" too.
// result y

// query Please give the result for "PPPAPPPPLRLL" too.
// result y

// query Please give the result for "GLGVMGVGCVGS" too.
// result y

// query Please give the result for "SPASPNALPAAP" too.
// result y

// query Please give the result for "DLLKFGPKVLHL" too.
// result y

// query Please give the result for "TSYNLPAAPHPV" too.
// result y
